Just for reference, patent US12448388B2 is where these values come from.

For each of the molecules below, state its bioavailability.
# experimental protocol: PK data (IV/PO) in Sprague-Dawley rat
# Type: in vivo
# measurement context: Sprague-Dawley, rat, in vivo, po, 1.66 mg/kg, PO 1.66 mg/Kg
Please give a number only; it is taken to be in %.

Input Nc1nc2cnc(C(=O)N3CCC[C@@H]4Oc5cc(C(F)(F)F)cc(F)c5[C@@H]43)cc2n2cncc12 (single isomer, unassigned) [Fg-53] , output reported bioavailability.
120

Input Nc1nc2cnc(C(=O)N3CCC[C@@H]4Oc5cc(OC(F)(F)F)cc(F)c5[C@@H]43)cc2n2cncc12 (single isomer, unassigned) [Fg-55] , output reported bioavailability.
99

====

# experimental protocol: PBS solubility (kinetic solubility from DMSO stocks)
# Assay type: physicochemical
# measurement context: 22 °C, aqueous buffer, kinetic from dmso stock; 1x PBS pH 7.4, 1.0% DMSO, 24-hour incubation at ambient temperature
value kind: solubility at 24 h (µM)
Please give a number only; it is taken to be in µM.

Input Nc1nc2cnc(C(=O)N3CCC[C@@H]4Oc5cc(C(F)(F)F)ccc5[C@@H]43)cc2n2cncc12 , output reported solubility at 24 h.
1.7

Input Nc1nc2ccc(C(=O)N3CCC[C@@H]4Oc5cc(C(F)(F)F)ccc5[C@@H]43)cc2n2cncc12 , output reported solubility at 24 h.
1.1

Input Nc1nc2cnc(C(=O)N3CC4(CC4)C[C@@H]4Oc5cc(C(F)(F)F)ccc5[C@@H]43)cc2n2cncc12 , output reported solubility at 24 h.
5.1

Input N#Cc1cc2nc(N)c3cncn3c2cc1C(=O)N1CCC[C@@H]2Oc3cc(C(F)(F)F)ccc3[C@@H]21 , output reported solubility at 24 h.
4.2

Input C[C@H]1CN(C(=O)c2cc3c(cc2F)nc(N)c2cncn23)[C@H]2c3ccc(C(F)(F)F)cc3C[C@H]2O1 (single isomer, unassigned) , output reported solubility at 24 h.
18.5

Input Nc1nc2cnc(C(=O)N3CC[C@H]4C[C@@H]3c3c(F)cc(C(F)(F)F)cc3O4)cc2n2cncc12 (single isomer, unassigned) , output reported solubility at 24 h.
50.2

====

For each of the compounds below, state its CC50.
# System: HCT116 MTAP-deleted cell lines
# experimental protocol: Cell viability assay (CellTiter-Glo, 7 days), HCT116 MTAP-deleted
# Format: cell-based
# measurement context: Homo sapiens, HCT-116; cell viability assay, HCT116 MTAP-deleted; class symbols; read-out: CC50

Input Cc1ncn2c(N)nc3ccc(C(=O)N(Cc4ccc(C(F)(F)F)cn4)[C@H](C)c4ncccn4)cc3c12 [Fg-2] , output reported CC50.
< 100 nM

Input Cc1ncn2c1c(N)nc1cnc(C(=O)N3C[C@H](C)C[C@@H]4Oc5cc(OC(F)(F)F)ccc5[C@@H]43)cc12 [Ff-619] , output reported CC50.
< 100 nM

Input Nc1nc2cc(F)c(C(=O)N3CCOC[C@@H]3c3ccc(OC(F)(F)F)cc3)cc2n2cncc12 (single isomer, unassigned) [Ff-555] , output reported CC50.
< 100 nM

Input Cc1ncn2c1c(N)nc1cnc(C(=O)N3C[C@@H](F)C[C@@H]4Oc5cc(C(F)(F)F)ccc5[C@@H]43)cc12 [Ff-658] , output reported CC50.
< 100 nM

Input Nc1nc2cc(F)c(C(=O)N3CCC[C@@H]4Oc5c(ccc(C(F)(F)F)c5F)[C@@H]43)cc2n2cncc12 [Ff-501] , output reported CC50.
< 100 nM

Input CN(C(=O)c1cc2c(cc1F)nc(N)c1cncn12)[C@@H]1COc2cc(S(F)(F)(F)(F)F)ccc21 [Ff-652] , output reported CC50.
< 100 nM

Input Nc1nc2ccc(C(=O)N(Cc3ccc(C(F)(F)F)cn3)C34CC(C3)C4)cc2c2cncn12 [Fg-15] , output reported CC50.
> 1000 nM

Input C[C@H]1CN(C(=O)c2cc3c(cc2F)nc(N)c2cncn23)[C@H]2Cc3ccccc3[C@H]2O1 (single isomer, unassigned) [Ff-623] , output reported CC50.
100 to 1000 nM

Input CN(C(=O)c1cc2c(cc1F)nc(N)c1cncn12)[C@@H]1COc2cc(OC(F)F)cc(F)c21 [Ff-585] , output reported CC50.
< 100 nM

Input C[C@@H](c1ccc(C(F)(F)F)cc1F)N(C)C(=O)c1cc2c(cc1F)nc(N)c1cncn12 [Ff-533] , output reported CC50.
100 to 1000 nM

Input CN(C(=O)c1cc2c(cc1F)nc(N)c1cnc(Br)n12)[C@@H]1COc2cc(C(F)(F)F)ccc21 (single isomer, unassigned) [Ff-493] , output reported CC50.
100 to 1000 nM

Input C=C(C)c1ccc2c(c1)OC[C@H]2N(C)C(=O)c1cc2c(cc1F)nc(N)c1cncn12 [Ff-478] , output reported CC50.
< 100 nM

Input Nc1nc2cc(F)c(C(=O)N3C[C@H](F)CC4Oc5cc(OC(F)(F)F)ccc5C43)cc2n2cncc12 (mixture of isomers) [Fg-57] , output reported CC50.
< 100 nM

Input Nc1nc2cc(F)c(C(=O)N3CCC4(CCCc5ccccc54)C3)cc2n2cncc12 (centres unmarked) [Ff-669] , output reported CC50.
100 to 1000 nM

====

# Tested on: Symmetric Di-methyl Arginine (SDMA) signal (PRMT5 inhibition) in HCT116 MTAP-deleted cells
# experimental protocol: Symmetric di-methyl arginine image-based high content screen assay (SDMA assay), HCT116 MTAP-deleted
# Assay type: cell-based
# measurement context: Homo sapiens, HCT-116, HCT116 MTAP-deleted, class symbols
pEC50: −log10 of the molar value.
value kind: pEC50

Input Nc1nc2cc(F)c(C(=O)N(Cc3ccc(C(F)(F)F)cc3F)C(CO)CO)cc2n2cncc12 , output reported pEC50.
< 8.30

Input [2H]C([2H])([2H])c1ncn2c1c(N)nc1cnc(C(=O)N3CCC[C@@H]4Oc5cc(C(F)(F)F)ccc5[C@@H]43)cc12 , output reported pEC50.
8.30 to 9.00

Input CN(C(=O)c1cc2c(cc1F)nc(N)c1cncn12)[C@@H]1CC2(CC2)c2cc(C(F)(F)F)ccc21 , output reported pEC50.
8.30 to 9.00

Input Cc1ncn2c1c(N)nc1ccc(C(=O)N(Cc3ccc(C(F)(F)F)cc3F)N(C)C(=O)C3CC3)cc12 , output reported pEC50.
8.30 to 9.00

Input Nc1nc2ccc(C(=O)N3CCC4(CC4)[C@@H]4Oc5cc(OC(F)(F)F)ccc5[C@@H]43)cc2n2cncc12 , output reported pEC50.
≥ 9.00

Input Cc1ncn2c(N)nc3cc(F)c(C(=O)N(Cc4ccc(C(F)(F)F)cn4)[C@H](C)c4ncccn4)cc3c12 , output reported pEC50.
8.30 to 9.00

Input CN(C(=O)c1cc2c(cc1F)nc(N)c1cncn12)[C@@H]1COc2cc(-c3cnn(C(F)F)c3)ccc21 , output reported pEC50.
8.30 to 9.00

Input CN(C(=O)c1cc2c(cc1F)nc(N)c1cncn12)[C@@H]1COCc2cc(Br)ccc21 , output reported pEC50.
≥ 9.00

Input COC(C)(C)C#Cc1ccc2c(c1)OC[C@H]2N(C)C(=O)c1ccc2nc(N)c3cnc(C)n3c2c1 , output reported pEC50.
< 8.30

Input Cc1ncc2c(N)nc3ccc(C(=O)N(Cc4ccc(C(F)(F)F)cn4)N(C)c4ncccn4)cc3n12 , output reported pEC50.
≥ 9.00

Input CCN(Cc1ccc(C(F)(F)F)cc1F)C(=O)c1cc2c(cc1F)nc(N)c1cncn12 , output reported pEC50.
≥ 9.00

Input Cc1ncc2c3cc(C(=O)N(Cc4ccc(C(F)(F)F)cn4)[C@H](C)c4ncccn4)ccc3nc(N)n12 , output reported pEC50.
8.30 to 9.00

Input CN(C(=O)c1cc2c(cc1F)nc(N)c1cncn12)[C@@H]1COc2cc(-c3cnn(C4CC4)c3)ccc21 , output reported pEC50.
8.30 to 9.00

Input CN(C(=O)c1cc2c(cc1F)nc(N)c1cncn12)[C@@H]1COc2cc(C(F)(F)F)ncc21 , output reported pEC50.
8.30 to 9.00

Input Cc1ncn2c1c(N)nc1cnc(C(=O)N3C[C@@H](F)C[C@@H]4Oc5cc(OC(F)(F)F)ccc5[C@@H]43)cc12 , output reported pEC50.
≥ 9.00

====

For each of the compounds below, state its Human Predicted Hepatocyte CL.
# experimental protocol: Hepatocyte stability assay, human
# Assay type: in vitro ADME
# measurement context: human hepatocytes, 1 μM
Please give a number only; it is taken to be in mL/min/kg.

Input Nc1nc2cc(F)c(C(=O)N3CCC[C@@H]4Oc5cc(C(F)(F)F)ncc5[C@@H]43)cc2n2cncc12 [Ff-117] , output reported Human Predicted Hepatocyte CL.
0.83

Input Cc1ncn2c1c(N)nc1cnc(C(=O)N3CCC[C@@H]4Oc5cc(C(F)(F)F)ccc5[C@@H]43)cc12 [Ff-499] , output reported Human Predicted Hepatocyte CL.
4.17

Input Nc1nc2cc(F)c(C(=O)N3CCO[C@@H]4Cc5cc(C(F)(F)F)ccc5[C@@H]43)cc2n2cncc12 (single isomer, unassigned) [Ff-82] , output reported Human Predicted Hepatocyte CL.
4.33

Input Nc1nc2cnc(C(=O)N3CCC[C@@H]4Oc5cc(C(F)(F)F)ccc5[C@@H]43)cc2n2cncc12 [Ff-110] , output reported Human Predicted Hepatocyte CL.
3.67
